Measured values drawn from patent US20080119491A1 for this set.

- Measurement Target: Human indoleamine 2,3-dioxygenasae (IDO) (Homo sapiens, UniProt P14902)
- Sequence (P14902 whole entry): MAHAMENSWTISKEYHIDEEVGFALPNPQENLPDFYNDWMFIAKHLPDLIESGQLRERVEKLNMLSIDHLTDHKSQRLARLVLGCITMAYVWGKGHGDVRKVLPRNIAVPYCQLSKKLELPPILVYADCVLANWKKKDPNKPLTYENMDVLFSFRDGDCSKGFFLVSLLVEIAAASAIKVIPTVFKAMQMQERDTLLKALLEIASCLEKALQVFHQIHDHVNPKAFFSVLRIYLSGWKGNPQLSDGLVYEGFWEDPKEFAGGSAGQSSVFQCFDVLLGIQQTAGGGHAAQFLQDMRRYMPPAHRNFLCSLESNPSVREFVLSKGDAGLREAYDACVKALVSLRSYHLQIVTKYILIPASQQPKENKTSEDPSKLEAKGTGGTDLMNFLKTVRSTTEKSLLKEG
Measured Property: IC50

Query: Entry ON=C(Nc1ccc(F)c(Cl)c1)c1cccc(Oc2ccccc2)c1 [Example 10] needs its IC50 filled in; supply it.
Reply: > 10 µM
